human OAT3 (Homo sapiens) Ki data
Sequence (Q8TCC7 whole entry): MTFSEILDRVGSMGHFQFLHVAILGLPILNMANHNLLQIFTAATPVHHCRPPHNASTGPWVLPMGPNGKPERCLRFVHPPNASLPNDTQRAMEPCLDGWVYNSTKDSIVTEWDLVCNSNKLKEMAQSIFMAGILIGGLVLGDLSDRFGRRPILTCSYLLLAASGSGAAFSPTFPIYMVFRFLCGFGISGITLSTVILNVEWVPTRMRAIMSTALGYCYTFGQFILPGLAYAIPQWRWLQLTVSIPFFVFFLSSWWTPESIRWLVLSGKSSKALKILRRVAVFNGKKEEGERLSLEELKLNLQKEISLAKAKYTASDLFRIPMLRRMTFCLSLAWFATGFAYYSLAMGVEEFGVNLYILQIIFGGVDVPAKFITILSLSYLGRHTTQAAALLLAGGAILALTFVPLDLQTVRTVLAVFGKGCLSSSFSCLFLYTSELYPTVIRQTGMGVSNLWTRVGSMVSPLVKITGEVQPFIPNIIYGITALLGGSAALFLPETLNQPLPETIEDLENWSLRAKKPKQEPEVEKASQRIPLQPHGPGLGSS
Where a name gives a salt, the structure may show the parent alone.
I only need the number, in µM, no unit after it.

[
  {
    "molecule": "C[C@]12CC[C@@H]3c4ccc(OS(=O)(=O)O)cc4CC[C@H]3[C@@H]1CCC2=O [Estrone sulfate, reference compound]",
    "recorded_metric": "Ki",
    "value": 1
  }
]

For the next question, use this molecule.
Would you mind telling me what Ki value was observed for CCCN(CCC)S(=O)(=O)c1ccc(C(=O)O[C@@H]2O[C@H](C(=O)O)[C@@H](O)[C@H](O)[C@H]2O)cc1 ? 19.9

---

Molecular target: human OAT1 (Homo sapiens)
Assay: Inhibition of OAT1-mediated 6-carboxyfluorescein
Listed here: items and their measured pKi.
// pKi: -log10(molar conc.)

[
  {
    "compound": "CCc1ccc(CCOc2ccc(CC3SC(=O)NC3=O)cc2)nc1 (stereo not shown) [Pioglitazone, reference compound]",
    "value": 5.20
  }
]

Form field: reported pKi of CC1=C(CC(=O)O)c2cc(F)ccc2/C1=C\c1ccc([S+](C)[O-])cc1 (stereo not shown) [Sulindac, reference compound] 4.25

Same read-out for COc1ccc(Cl)cc1C(=O)NCCc1ccc(S(=O)(=O)NC(=O)NC2CCCCC2)cc1 [Glyburide, reference compound] ? 5.24

Could you do the same for CSc1ccc(/C=C2/C(C)=C(CC(=O)O)c3cc(F)ccc32)cc1 [Sulindac sulfide] , please? 5.43

And CCCCc1nc(Cl)c(C(=O)O)n1Cc1ccc(-c2ccccc2-c2nn[nH]n2)cc1 [Losartan carboxylic acid] ? 6.16

---

Target: UniProtKB Q4U2R8
Sequence (Q4U2R8 1-563): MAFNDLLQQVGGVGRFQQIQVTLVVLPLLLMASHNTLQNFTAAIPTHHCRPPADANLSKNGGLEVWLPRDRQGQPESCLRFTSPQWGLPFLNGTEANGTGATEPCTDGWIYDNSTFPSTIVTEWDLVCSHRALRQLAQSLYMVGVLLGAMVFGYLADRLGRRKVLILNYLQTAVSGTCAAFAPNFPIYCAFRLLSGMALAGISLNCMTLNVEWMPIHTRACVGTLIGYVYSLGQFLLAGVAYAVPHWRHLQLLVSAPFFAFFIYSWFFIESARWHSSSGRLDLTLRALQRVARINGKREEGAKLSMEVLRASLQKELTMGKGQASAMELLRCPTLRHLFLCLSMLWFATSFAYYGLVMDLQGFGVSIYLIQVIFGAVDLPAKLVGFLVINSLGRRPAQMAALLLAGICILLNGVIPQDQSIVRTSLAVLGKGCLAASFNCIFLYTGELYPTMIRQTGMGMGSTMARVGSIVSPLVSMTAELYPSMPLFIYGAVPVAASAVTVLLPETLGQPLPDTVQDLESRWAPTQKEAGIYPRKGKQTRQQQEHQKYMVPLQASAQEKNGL
Assay: Inhibition of OAT1-mediated 6-carboxyfluorescein
Conditions: read-out: Ki (OAT1)
pKi: −log10 of the molar value.
So basically: pKi at 5 or higher? That is Yes. Lower than 5? That is No.

[
  {
    "compound": "Cc1c(CC(=O)O)c2cc(O)ccc2n1C(=O)c1ccc(Cl)cc1",
    "assigned_category": "Yes"
  }
]

Could you tell me if the measured pKi of O=C(O)Cc1ccccc1Nc1c(Cl)cc(O)cc1Cl [4-Hydroxy diclofenac] reaches 5 or more? Yes

And the next one, Cc1ccc(NC(=O)c2ccc(CN3CC[N+](C)([O-])CC3)cc2)cc1Nc1nccc(-c2cccnc2)n1 [Imatinib (piperidine)-4-oxide] ? No

Do the same for CC1=C(CC(=O)O)c2cc(F)ccc2/C1=C\c1ccc(S(C)(=O)=O)cc1 please No

Could you do the same for COc1ccc2cc([C@H](C)C(=O)O[C@@H]3O[C@H](C(=O)O)[C@@H](O)[C@H](O)[C@H]3O)ccc2c1 [(S)-naproxen acyl-β-D-glucuronide] , please? No

And then O=c1n(CCCN2CCN(c3ccc(O)c(Cl)c3)CC2)nc2ccccn12 [4-hydroxy-trazodone] , what is it? No
